System: Musca domestica
test-details: Insecticidal activity against female Musca domestica (house fly) assessed as mortality compound topically applied to the abdomen measured per fly after 24 hr
Type: functional
readout-label: LD50 (µg)
Report the figure in µg without appending any unit label.

Here are 2 compounds together with their reported answers.
[[record]]
compound = "COP1(=S)NCC(c2ccccc2F)O1 (stereo unspecified)"
units_symbol = "µg"
reading = 0.14

[[record]]
compound = "COP1(=S)NCC(c2ccc(C)cc2)O1 (stereo unspecified)"
units_symbol = "µg"
reading = 0.084


Endpoint output: LD50 of COP1(=S)NCC(c2c(F)cccc2F)O1 (stereo unspecified) . Value?
0.82

Endpoint output: LD50 of COP1(=S)NCC(c2ccc(C)cc2C)O1 (stereo unspecified) . Value?
0.73

Endpoint output: LD50 of COP(=S)(OC)Oc1ccc([N+](=O)[O-])c(C)c1 [FENITROTHION] . Value?
0.051

Endpoint output: LD50 of COP1(=S)NCC(c2ccc(Br)cc2)O1 (stereo unspecified) . Value?
0.21

Endpoint output: LD50 of COP1(=S)NCC(C)(c2ccccc2)O1 (stereo unspecified) . Value?
0.88

Endpoint output: LD50 of COP1(=S)NCC(c2ccc(F)c(F)c2)O1 (stereo unspecified) . Value?
0.59

Endpoint output: LD50 of COP1(=S)NCC(c2cccc(Br)c2)O1 (stereo unspecified) . Value?
0.2

Endpoint output: LD50 of COP1(=S)NCC(C)(c2ccccc2F)O1 (stereo unspecified) . Value?
1.26

Endpoint output: LD50 of COP1(=S)NCC(c2cc(F)ccc2F)O1 (stereo unspecified) . Value?
0.32

Endpoint output: LD50 of COP1(=S)NCC(c2ccc(Cl)cc2)O1 (stereo unspecified) . Value?
0.16

Endpoint output: LD50 of COP1(=S)NCC(c2ccc(F)cc2)O1 (stereo unspecified) . Value?
0.083

Endpoint output: LD50 of COc1cccc(C2CNP(=S)(OC)O2)c1 (stereo unspecified) . Value?
0.18

Endpoint output: LD50 of COP1(=S)NCC(c2cccc3ccccc23)O1 (stereo unspecified) . Value?
0.68

Endpoint output: LD50 of COP1(=S)NCC(c2ccc3ccccc3c2)O1 (stereo unspecified) . Value?
0.64

Endpoint output: LD50 of COP1(=S)NCC(c2ccccc2Cl)O1 (stereo unspecified) . Value?
0.53

Endpoint output: LD50 of COc1cc(OC)cc(C2CNP(=S)(OC)O2)c1 (stereo unspecified) . Value?
1.12

Endpoint output: LD50 of COP1(=S)NCC(C)(c2cccc(Br)c2)O1 (stereo unspecified) . Value?
0.29

Endpoint output: LD50 of COP1(=S)NCC(c2ccccc2Br)O1 (stereo unspecified) . Value?
0.5

Endpoint output: LD50 of COP1(=S)NCC(c2cccc(Cl)c2)O1 (stereo unspecified) . Value?
0.24

Endpoint output: LD50 of COP1(=S)NCC(c2ccc(F)cc2F)O1 (stereo unspecified) . Value?
0.35

Endpoint output: LD50 of COP1(=S)NCC(c2ccccc2)O1 (stereo unspecified) . Value?
0.035

----------
This section presents molecules with their documented LD50 values.
Tested on: Musca domestica
test-details: Insecticidal activity against female Musca domestica (house fly) assessed as mortality compound topically applied to the abdomen measured per fly after 24 hr
Type: functional
Report the figure in µg without appending any unit label.

Here are 3 molecules together with their reported answers.
[[record]]
molecule = "COP1(=S)NCC(c2cc(C)ccc2C)O1 (stereo not given)"
units_symbol = "µg"
reading = 0.23

[[record]]
molecule = "COP1(=S)NCC(c2ccc(Cl)cc2Cl)O1 (stereo not given)"
units_symbol = "µg"
reading = 0.8

[[record]]
molecule = "CCc1ccc(C2CNP(=S)(OC)O2)cc1 (stereo not given)"
units_symbol = "µg"
reading = 0.22


Endpoint output: LD50 of COP1(=S)NCC(c2ccccc2C)O1 (stereo not given) . Value?
0.27

Endpoint output: LD50 of COP1(=S)NCC(c2ccc(C(C)C)cc2)O1 (stereo not given) . Value?
0.42

Endpoint output: LD50 of COP1(=S)NCC(c2cccc(F)c2)O1 (stereo not given) . Value?
0.16

Endpoint output: LD50 of COc1cccc(C2CNP(=S)(OC)O2)c1OC (stereo not given) . Value?
0.53

----------
Tested on: Musca domestica
test-details: Insecticidal activity against female Musca domestica (house fly) assessed as mortality compound topically applied to the abdomen measured per fly after 24 hr
Type: functional
This section presents compounds with their documented pLD50 values.
Respond with the number and no other words.

Here are 3 compounds together with their reported answers.
[[record]]
compound = "COP1(=S)NCC(c2ccccc2)O1 (stereo not given)"
reading = 3.82

[[record]]
compound = "CCc1ccc(C2CNP(=S)(OC)O2)cc1 (stereo not given)"
reading = 3.07

[[record]]
compound = "COP1(=S)NCC(c2ccccc2Br)O1 (stereo not given)"
reading = 2.79


Endpoint output: pLD50 of COP1(=S)NCC(c2ccc(F)cc2)O1 (stereo not given) . Value?
3.47

Endpoint output: pLD50 of COP1(=S)NCC(c2cccc(F)c2)O1 (stereo not given) . Value?
3.19

Endpoint output: pLD50 of COP1(=S)NCC(c2ccccc2Cl)O1 (stereo not given) . Value?
2.7

Endpoint output: pLD50 of COP1(=S)NCC(c2ccc(Cl)cc2)O1 (stereo not given) . Value?
3.22

Endpoint output: pLD50 of COP1(=S)NCC(c2ccccc2F)O1 (stereo not given) . Value?
3.25

Endpoint output: pLD50 of COc1cccc(C2CNP(=S)(OC)O2)c1 (stereo not given) . Value?
3.16

Endpoint output: pLD50 of COP1(=S)NCC(c2ccc(C(C)C)cc2)O1 (stereo not given) . Value?
2.81

Endpoint output: pLD50 of COP1(=S)NCC(c2ccc(C)cc2)O1 (stereo not given) . Value?
3.46

----------
This section presents compounds with their documented LD50 values.
Tested on: Musca domestica
test-details: Insecticidal activity against female Musca domestica (house fly) assessed as mortality compound topically applied to the abdomen measured per fly after 24 hr
Assay type: functional

[[record]]
compound = "COP1(=S)NCC(c2ccccc2)(C(C)C)O1 (stereo not drawn)"
measurement_target = "Musca domestica"
readout_label = "LD50"
reading = ">1 µg"

[[record]]
compound = "COP1(=S)NCC(c2ccc([N+](=O)[O-])cc2)O1 (stereo not drawn)"
measurement_target = "Musca domestica"
readout_label = "LD50"
reading = ">1 µg"


Turning now to a further record.
Endpoint output: LD50 of COP1(=S)NCC(C2CC=CCC2)O1 (stereo not drawn) . Value?
>1 µg

----------
Test system: Musca domestica
test-details: Insecticidal activity against female Musca domestica (house fly) assessed as mortality compound topically applied to the abdomen measured per fly after 24 hr
Format: functional
This section presents compounds with their documented pLD50 values.
Respond with the number and no other words.

[[record]]
compound = "COP1(=S)NCC(c2cccc(Br)c2)O1 (centres undefined)"
measurement_target = "Musca domestica"
readout_label = "pLD50"
reading = 3.19

[[record]]
compound = "COP1(=S)NCC(c2ccccc2C)O1 (centres undefined)"
measurement_target = "Musca domestica"
readout_label = "pLD50"
reading = 2.95

[[record]]
compound = "COP1(=S)NCC(c2cccc(Cl)c2)O1 (centres undefined)"
measurement_target = "Musca domestica"
readout_label = "pLD50"
reading = 3.04


Turning now to a further record.
Endpoint output: pLD50 of COP1(=S)NCC(c2ccc(Br)cc2)O1 (centres undefined) . Value?
3.13
